- measured-target: β-secretase(BACE) (Homo sapiens)
- Construct: purchased Panvera
- Sequence (P56817 46-501): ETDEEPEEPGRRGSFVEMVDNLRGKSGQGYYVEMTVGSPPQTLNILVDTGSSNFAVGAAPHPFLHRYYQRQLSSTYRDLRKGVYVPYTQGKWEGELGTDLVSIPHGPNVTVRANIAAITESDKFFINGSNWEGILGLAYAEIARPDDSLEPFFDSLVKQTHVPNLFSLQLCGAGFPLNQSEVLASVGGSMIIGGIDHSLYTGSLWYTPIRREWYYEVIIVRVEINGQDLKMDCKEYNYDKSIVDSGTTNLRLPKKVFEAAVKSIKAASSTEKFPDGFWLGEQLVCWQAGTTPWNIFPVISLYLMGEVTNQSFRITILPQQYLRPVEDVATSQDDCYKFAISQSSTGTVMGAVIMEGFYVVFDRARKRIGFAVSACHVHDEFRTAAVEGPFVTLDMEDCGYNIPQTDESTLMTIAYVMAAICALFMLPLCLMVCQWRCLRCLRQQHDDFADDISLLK
- experiment: BACE FS1% Inhibition Assay
- Format: biochemical
- experimental-setup: 3 μM test compound; FS1 substrate
measurement-label: % Inhibition (FS) 3 μM (%)
// units = %; emit number, no label

Record summary for COc1ccccc1-c1ccc2c(c1)CN([C@@H](CCC(=O)N(C)C1CCCCC1)C1CCCCC1)C(N)=N2 : reported % Inhibition (FS) 3 μM = 128

Looking up NC1=Nc2ccc(Oc3ccccc3)cc2CN1C(CCCC(=O)N1CCCCC1)CCC(=O)N1CCCCC1 (stereo not shown) , I found its % Inhibition (FS) 3 μM recorded as 78

response.value for CCC[C@H](CNC(=O)CCC(C)C)N1Cc2cc(Oc3ccccc3)ccc2N=C1N (field: % Inhibition (FS) 3 μM) = 122

// sample CN(C(=O)c1cccc(CN2Cc3cc([S+]([O-])c4ccccc4)ccc3N=C2N)c1)C1CCCCC1 (stereo not shown) , its % Inhibition (FS) 3 μM was 71
